- test: Plasma concentrations in CAD patients after oral Plavix 75 mg
- Type: in vivo
- experimental context: human
experimental readout: Cmax (ng/mL)
Give just the number in ng/mL; leave the unit off.

May I ask what Cmax has been recorded for `COC(=O)[C@H](c1ccccc1Cl)N1CCc2sccc2C1` ?
17
